Tested on: PA1 (human ovary)
Procedure Summary: MTT cytotoxicity assay, PA1 cells
Type: cell-based
Recorded Conditions: human, 48 hours, 1 μM
Starred links: 1 amine or outer side, 2 acyl side, 3 side chain; linkers in the order of their positions; H or OH if unused. Non-standard residues stand in square brackets, D forms with d. Residues, ends and D or L forms follow the SMILES beside them. 2Furoyl(5-aminomethyl) = O=C(c1ccc(CN[*:1])o1)[*:2]; X2 = O=C([C@@H]1CC[C@H](CN[*:1])O1)[*:2]; X1 = O=C(C1CCC(CN[*:1])O1)[*:2]
Quantity Measured: Percent Cytotoxicity (%)
Return type: number; implicit unit %.

Sample answers from the record:
[
  {
    "Molecule": "CSCC[C@H](NC(=O)[C@@H](N)CC(C)C)C(=O)N[C@@H](Cc1ccc(O)cc1)C(=O)NC[C@H]1CC[C@@H](C(=O)N[C@@H](Cc2ccc(O)cc2)C(=O)N[C@@H](CC(C)C)C(=O)N[C@@H](CCCCN)C(=O)O)O1 [SEQ ID NO: 13, Leu-Met-Tyr-Saa4-Tyr-Leu-Lys] (H-LMY[X2]YLK-OH)",
    "Val": 35.5
  },
  {
    "Molecule": "CSCC[C@H](NC(=O)[C@@H](N)CC(C)C)C(=O)N[C@@H](Cc1ccc(O)cc1)C(=O)NCc1ccc(C(=O)N[C@@H](Cc2ccc(O)cc2)C(=O)N[C@@H](CC(C)C)C(=O)N[C@@H](CCCCN)C(=O)O)o1 [SEQ ID NO: 10, Leu-Met-Tyr-Saa1-Tyr-Leu-Lys] (H-LMY[2Furoyl(5-aminomethyl)]YLK-OH)",
    "Val": 28.4
  },
  {
    "Molecule": "CSCC[C@H](N)C(=O)NCC1CCC(C(=O)N[C@@H](Cc2ccc(O)cc2)C(=O)N[C@@H](CC(C)C)C(=O)O)O1 (stereo partly shown) [SEQ ID NO: 16, Met-Saa3-Tyr-Leu]",
    "Val": 16.8
  }
]

Percent Cytotoxicity in this record for CSCC[C@H](NC(=O)[C@@H](N)CC(C)C)C(=O)N[C@@H](Cc1ccc(O)cc1)C(=O)NCC1CCC(C(=O)N[C@@H](Cc2ccc(O)cc2)C(=O)N[C@@H](CC(C)C)C(=O)N[C@@H](CCCCN)C(=O)O)O1 (stereo partly drawn) [SEQ ID NO: 12, Leu-Met-Tyr-Saa3-Tyr-Leu-Lys] (H-LMY[X1]YLK-OH) : 32.1

----------
System: PTC (colon)
Procedure Summary: MTT cytotoxicity assay, PTC cells
Assay type: cell-based, human
Recorded Conditions: human, 48 hours, 100 nM
Starred links: 1 amine or outer side, 2 acyl side, 3 side chain; linkers in the order of their positions; H or OH if unused. Non-standard residues stand in square brackets, D forms with d. Residues, ends and D or L forms follow the SMILES beside them. 2Furoyl(5-aminomethyl) = O=C(c1ccc(CN[*:1])o1)[*:2]; X2 = O=C([C@@H]1CC[C@H](CN[*:1])O1)[*:2]
Quantity Measured: Percent Cytotoxicity (%)
Record the value in %, omitting the unit from your answer.

Query CSCC[C@H](NC(=O)[C@@H](N)CC(C)C)C(=O)N[C@@H](Cc1ccc(O)cc1)C(=O)NCc1ccc(C(=O)N[C@@H](Cc2ccc(O)cc2)C(=O)N[C@@H](CC(C)C)C(=O)N[C@@H](CCCCN)C(=O)O)o1 [SEQ ID NO: 10, Leu-Met-Tyr-Saa1-Tyr-Leu-Lys] (H-LMY[2Furoyl(5-aminomethyl)]YLK-OH) yields Percent Cytotoxicity of 25.6

The compound CSCC[C@H](NC(=O)[C@@H](N)CC(C)C)C(=O)N[C@@H](Cc1ccc(O)cc1)C(=O)NC[C@H]1CC[C@@H](C(=O)N[C@@H](Cc2ccc(O)cc2)C(=O)N[C@@H](CC(C)C)C(=O)N[C@@H](CCCCN)C(=O)O)O1 [SEQ ID NO: 13, Leu-Met-Tyr-Saa4-Tyr-Leu-Lys] (H-LMY[X2]YLK-OH) showed Percent Cytotoxicity equal to 22.8

Sourced from patent US7060678B2
